Exercise: for every item that follows, state its recorded inhibition at 1 µM.
Target: human PDE4B1 (Homo sapiens)
Construct: host or cells: Sf9 cells
Sequence (Q07343 whole entry): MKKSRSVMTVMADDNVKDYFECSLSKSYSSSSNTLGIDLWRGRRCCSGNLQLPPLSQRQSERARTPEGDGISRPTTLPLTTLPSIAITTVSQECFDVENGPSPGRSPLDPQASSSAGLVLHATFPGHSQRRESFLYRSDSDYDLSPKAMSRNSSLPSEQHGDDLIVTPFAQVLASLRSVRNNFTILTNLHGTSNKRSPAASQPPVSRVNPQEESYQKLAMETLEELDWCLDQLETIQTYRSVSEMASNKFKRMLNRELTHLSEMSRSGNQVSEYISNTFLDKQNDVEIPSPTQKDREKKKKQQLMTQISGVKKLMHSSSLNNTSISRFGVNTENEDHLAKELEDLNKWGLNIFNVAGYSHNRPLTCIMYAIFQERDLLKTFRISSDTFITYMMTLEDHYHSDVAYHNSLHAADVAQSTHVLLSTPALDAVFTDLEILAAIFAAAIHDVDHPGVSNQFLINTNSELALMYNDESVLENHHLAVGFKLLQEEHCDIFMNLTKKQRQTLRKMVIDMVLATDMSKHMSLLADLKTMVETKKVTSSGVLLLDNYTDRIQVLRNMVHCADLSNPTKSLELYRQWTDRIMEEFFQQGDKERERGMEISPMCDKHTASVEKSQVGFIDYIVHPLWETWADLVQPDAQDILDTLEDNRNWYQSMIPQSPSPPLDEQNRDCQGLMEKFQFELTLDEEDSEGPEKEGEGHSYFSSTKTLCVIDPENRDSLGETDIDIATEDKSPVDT
Assay: cAMP HTRF assay to determine the activity of hPDE4B1
Format: biochemical
Conditions: 1 μM test concentration; human recombinant PDE4B1, cAMP 40 nM; read-out: Inhibition at 1 μM test concentration [%] (Percentage inhibition of PDE4B)
One number for each entry, in %.

[[record]]
molecule = "O=C(O)Cc1ccc(Oc2nc(-c3ccc(Br)s3)nc3c2CCC3)cc1 [Compound 49]"
measurement_target = "human PDE4B1 (Homo sapiens)"
scale_unit = "%"
observed_result = 59

[[record]]
molecule = "O=C(O)Cc1ccc(Oc2nc(-c3ccc(Cl)s3)nc3c2C[S+]([O-])CC3)cc1 (centres unmarked) [Compound 23]"
measurement_target = "human PDE4B1 (Homo sapiens)"
scale_unit = "%"
observed_result = 18

[[record]]
molecule = "Cc1ccc(-c2nc3c(c(Oc4ccc(CC(=O)O)cc4)n2)CCC3)s1 [Compound 58]"
measurement_target = "human PDE4B1 (Homo sapiens)"
scale_unit = "%"
observed_result = 65

[[record]]
molecule = "CC1Cc2nc(-c3ccc(Cl)s3)nc(Oc3ccc(CC(=O)O)cc3)c2C1 (centres unmarked) [Compound 59]"
measurement_target = "human PDE4B1 (Homo sapiens)"
scale_unit = "%"
observed_result = 62

[[record]]
molecule = "O=C(O)c1ccc(Oc2nc(-c3ccc(Cl)s3)nc3c2CCCC3)cc1 [Compound 11]"
measurement_target = "human PDE4B1 (Homo sapiens)"
scale_unit = "%"
observed_result = 44

[[record]]
molecule = "COc1ccc(-c2nc3c(c(Oc4ccc(C(=O)O)cc4)n2)CCC3)cc1F [Compound 4]"
measurement_target = "human PDE4B1 (Homo sapiens)"
scale_unit = "%"
observed_result = 62


State recorded inhibition at 1 µM for all listed molecules.
1. COc1ccc(-c2nc3c(c(Oc4ccc(CC(=O)O)cc4)n2)CS(=O)(=O)C3)cc1 [Compound 18]
2. NC(=O)c1ccc(-c2nc3c(c(Oc4ccc(CC(=O)O)cc4)n2)CCC3)s1 [Compound 47]
3. CS(=O)(=O)c1ccc(-c2nc3c(c(Oc4ccc(CC(=O)O)cc4)n2)CCC3)s1 [Compound 52]
4. O=C(O)Cc1ccc(Oc2nc(-c3cccc(Br)c3)nc3c2CCC3)cc1 [Compound 54]
5. O=C(O)Cc1ccc(Oc2nc(-c3ccc(F)s3)nc3c2CS(=O)(=O)C3)cc1 [Compound 15]

112
79
53
42
86

---

Molecular target: human PDE4B1 (Homo sapiens)
Construct: host or cells: Sf9 cells
Assay: cAMP HTRF assay to determine the activity of hPDE4B1
Format: biochemical
Details: 1 μM test concentration; human recombinant PDE4B1, cAMP 40 nM; read-out: Inhibition at 1 μM test concentration [%] (Percentage inhibition of PDE4B)
# cutoff 80% applies to inhibition at 1 µM; >= gives YES, < gives NO

[[record]]
cpd_smiles = "O=C(O)Cc1ccc(Oc2nc(-c3ccc(Cl)s3)nc3c2CCCC3)cc1"
classification = "NO"

[[record]]
cpd_smiles = "O=C(O)Cc1ccc(Oc2nc(-c3ccc(Cl)s3)nc3c2CSC3)cc1"
classification = "YES"

[[record]]
cpd_smiles = "O=C(O)Cc1ccc(Oc2nc(-c3cnc(Cl)s3)nc3c2CCC3)cc1"
classification = "NO"

[[record]]
cpd_smiles = "O=C(O)Cc1ccc(Oc2nc(-c3ccc(Cl)s3)nc3c2CC(F)(F)CC3)cc1"
classification = "NO"


For this molecule, is measured inhibition at 1 µM 80% or higher? O=C(O)Cc1ccc(Oc2nc(-c3ccc(O)c(Cl)c3)nc3c2CCC3)cc1
NO

For this molecule, is measured inhibition at 1 µM 80% or higher? O=C(O)c1ccc(Oc2nc(-c3ccc(Cl)s3)nc3c2CCC3)cc1
YES

For this molecule, is measured inhibition at 1 µM 80% or higher? O=C(O)Cc1ccc(Oc2nc(-c3ccc(Cl)s3)nc3c2CS(=O)(=O)C3)cc1
YES

For this molecule, is measured inhibition at 1 µM 80% or higher? O=C(O)Cc1ccc(Oc2nc(-c3ccc(F)c(F)c3)nc3c2CCC3)cc1
NO
